All values here come from ChEMBL document CHEMBL1157656.

TEST TARGET: Bcl-2-like protein 1 (Homo sapiens, UniProt Q07817)
Sequence (Q07817 whole entry): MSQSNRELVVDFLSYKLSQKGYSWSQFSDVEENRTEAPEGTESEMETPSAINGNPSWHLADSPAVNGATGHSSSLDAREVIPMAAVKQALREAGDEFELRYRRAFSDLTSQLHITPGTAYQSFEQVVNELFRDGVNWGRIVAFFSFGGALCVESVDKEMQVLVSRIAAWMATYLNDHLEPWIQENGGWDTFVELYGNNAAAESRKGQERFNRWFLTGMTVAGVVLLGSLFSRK
RUN DESCRIPTION: Inhibition of Bcl-xL expressed in Saccharomyces cerevisiae
Structures can show the parent of a compound that is named as a salt.
PARAMETER MEASURED: IC50 (µM)
Hi! Could you send only the number? It should be in µM, unit omitted.

# query: IC50 of entry COC1=CC(c2cc3ccccc3[nH]2)=N/C1=C\c1[nH]c(C)cc1C [OBATOCLAX MESYLATE] 4.69

###

PARAMETER MEASURED: Kd (µM)
Hi! Could you send only the number? It should be in µM, unit omitted.

Param readout= Kd; system= Bcl-2-like protein 1 (Homo sapiens, UniProt Q07817); entry= Oc1ccccc1-c1ccccc1 [2-PHENYLPHENOL] ; returns value. 2700

###

TEST TARGET: Bcl-2-like protein 1 (Homo sapiens, UniProt Q07817)
RUN DESCRIPTION: Inhibition of Bcl-xL
PARAMETER MEASURED: IC50 (nM)
Hi! Could you send only the number? It should be in nM, unit omitted.

# query: IC50 of entry `Cc1cc2c(C(C)C)c(O)c(O)c(C=O)c2c(O)c1-c1c(C)cc2c(C(C)C)c(O)c(O)c(C=O)c2c1O` 480
